Origin of values: patent US20240270821A1

biological target: hGLP-1R (Homo sapiens, UniProt P43220); experiment: cell-based or functional assay
Sequence (P43220 24-463): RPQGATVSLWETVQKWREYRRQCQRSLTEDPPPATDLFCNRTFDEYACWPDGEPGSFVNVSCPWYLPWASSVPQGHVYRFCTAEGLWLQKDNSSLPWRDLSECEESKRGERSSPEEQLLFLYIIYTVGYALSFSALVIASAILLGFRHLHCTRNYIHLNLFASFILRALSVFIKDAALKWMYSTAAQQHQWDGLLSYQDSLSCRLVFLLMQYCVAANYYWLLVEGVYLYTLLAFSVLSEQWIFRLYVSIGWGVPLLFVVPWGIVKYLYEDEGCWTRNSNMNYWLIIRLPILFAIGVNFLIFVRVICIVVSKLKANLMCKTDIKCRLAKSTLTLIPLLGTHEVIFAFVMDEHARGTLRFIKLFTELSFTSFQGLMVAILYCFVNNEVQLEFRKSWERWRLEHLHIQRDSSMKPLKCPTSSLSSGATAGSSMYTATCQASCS
Non-standard residues stand in square brackets, D forms with d. No end group written: not given here. αMeL = CC(C)C[C@](C)(N)C(=O)O; Aib = CC(C)(N)C(=O)O
Quantity: Relative cAMP EC50 (nM)
Dear colleague, please return just the value in nM, with no unit written.

Any idea what Relative cAMP EC50 was measured for YXQGTXTSDYSILLDKIAQXAFIKYLEEGGPSSGAPPPS (not fully specified; synthetic construct; SITE 2: note = 2-Aminoisobutyric Acid; SITE 6: note = alpha-methyl-2-fluoro-L-phenylalanine; SITE 20: note = 2-Aminoisobutyric Acid; SITE 24: note = Lysine is chemically modified through conjugation of the epsilon-amino group of the Lysine side chain with (2-[2-(2-Amino-ethoxy)-) [Example 430] ?
0.438

Input YXQGTFTSDFSKXLDKKAQXQFIEYLLAGGPSSGEPPPSEG (Lys acylated; Aib, αMeL; C-terminal amide; synthetic construct; SITE 2: note = 2-Aminoisobutyric Acid; SITE 13: note = alpha-methyl-leucine; SITE 17: note = Lysine is chemically modified through conjugation of the epsilon-amino group of the Lysine side chain with (2-[2-(2-Amino-ethoxy)-ethoxy]-acetyl)-(gamma-Glu)-CO-(CH2) 16-CO2H; SITE 20: n) [Example 26]
3.44

Query Y[Aib]QGTFTSDYSI[αMeL]LDKQAAKAFVEWLLAGGPSSGEPPPSEG-NH2 (not fully specified (residue 20)) [Example 305] next
1.48
